- Assay text: in vitro
- Cond: human, hela cells, % viability
Measured metric: viability at 28.5 h, 10 µM (%)

Molecule	Val
CCOc1ncccc1C(=O)Nc1cnc2c(cnn2C(C)C)c1 [CBK306210]	102
CN1CCC(=NNC(=O)CN(c2cccc(Cl)c2)S(=O)(=O)c2ccccc2)CC1 [CBK262489]	98
Cc1ccc(NC(=O)CSc2nnc(C(O)c3ccccc3)n2-c2ccccc2)c(C)c1 (stereo not drawn) [CBK266072]	106
O=C(NCC1(c2ccccc2F)CCCC1)c1cc[nH]c(=O)c1 [CBK281378]	112
CCOc1cc(C(c2c[nH]c3ccccc23)c2c[nH]c3ccccc23)ccc1OCC(=O)O [CBK264450]	97.1
CN(C)S(=O)(=O)N(CC(=O)N1CCN(Cc2ccc3c(c2)OCO3)CC1)c1ccccc1 [CBK267994]	102
COc1ccc(CN(Cc2cccs2)[C@@H]2COC[C@H]2c2ccc(F)cc2)cc1 [CBK286487]	90.6
N#C/C(=C\c1cn(-c2ccccc2)nc1-c1ccc(S(=O)(=O)N2CCCCC2)cc1)c1nc2ccccc2c(=O)[nH]1 [CBK266268]	101
Cc1nc(CC(=O)N2CCOC(c3ccc(F)cc3)C2)cs1 (stereo not drawn) [CBK305759]	106
